# Test system: MS2 coat protein
# test-description: apparent KD of MS2 coat protein, switch ON state; designed switch direction (-1 OFF switch, 1 ON switch): 1; higher = weaker reporter binding
# study-conditions: FMN input: 0 or 200 uM; Eterna round: R93 (includes R88 designs)

sequence-entry	units-text	apparent KD of MS2 coat protein
AAUAUAUUAAGUGAGGAUAUCAUAGGAAAAACAUGAGGAUCACCCAUGUGGGAAACCUGGUCGGGUGAGAAGGCACUUAAUAUAU [Samwise Clockwise 30 - Jieux - Same State 2]	nM	37.5
GAAAAACAUGAGGAUCACCCAUGUAGAAAUAUGGGAGGAUAUACAAAGACGAAAGUCAAAGUAGAAGGCCUGAGAA [Mat - Same State 1 - Eli mod - 83]	nM	21
CAAAACAAAACAUAGGAUAUCAAAACAAAAACAUGAGGAUCACCCAUGUGGAAACAUGAGAAGGAUGAGAAGGAAAACAAAACAA [Meechl SS2 R2 m7]	nM	25
GAAAAACAUGAGGAUCACCCAUGUACAAAUAUGGAAGGAUAUACGAUGACGAAAGUCAAAGUAGAAGGUCUAAAAG [Garnet 98]	nM	20.9
GAAAAACAUGAGGAUCACCCAUGUAGAAAUAUGGGAGGAUAUACAAGGACGAAAGUCAAGGUAGAAGGCCUAAAAG [Mat - Same State 1 - Eli mod - 26]	nM	33.8
CGAAGACAUGAGGAUCACCCAUGUGGGAUUAUGGGAGGAUAUACAAAGACGAGAGUCAGAGUAGAAGGCCUAGGAU [salish99-ss1-125(!)]	nM	22.4
UAAAAAAAAAGACAGGAUAUCCAAAAGAAAACAUGAGGAUCACCCAUGUAAAAGAAAAUAAAAUGGGAGAAGGGUCAAAAAAAAU [Mat - Same State 2 - JL mod - D79]	nM	31
AAAUAAAGGACUGAGGAUAUACCACAUGAAACAUGAGGAUCACCCAUGUAGAAAUACAAAGGGUGGUAGAAGGUAGUCCACAAAC [Same State 2.5 so lets mod hyphema)]	nM	45.9
AGAAAACAUGAGGAUCACCCAUGUCAGAAAUGGCAAGGAUAUAGAAAAGAAAAAGAAAAACUAGAAGGUGCAAAAG [Meechl SS1 R2 m2]	nM	187
UGGAGGAAGAGAGAGGAUAUCCAAAGGAAAACAUGAGGAUCACCCAUGUAAAAGGUAGGAAAUUGGGAGAAGGCUCAAGAGAGAG [salish99-ss2-059]	nM	37.2
AAAGACAUAGUUCAGGAUAUGGUAAUAGUCACAUGAGGAUCACCCAUGUGCAUUUAUAUGCGCGAUCAGAAGGGAGGUAGAUAUA [SameState2 Malc#18]	nM	18.8
GGGAGACAUGAGGAUCACCCAUGUGAGAAGAGGCGAGGAUAUCGAAAGAAAGAAGAGAAACGAGAAGGCGCGAGCA [salish99-SS1-052]	nM	39

* * *

# System: MS2 coat protein
# test-description: apparent KD of MS2 coat protein; higher = weaker reporter binding
# study-conditions: Eterna round: R107; input ligand: none
Classify by measured apparent KD of MS2 coat protein: 1 (yes) if it is equal to or exceeds 20 nM, 0 (no) if it is smaller.

sequence-entry	class-name
UUGGGUUUGUGAAGGAGCGGGAAUGUUUUAUAGUGGAUCCUAACAUGAGGAUCACCCAUGUCCCAGGUAGGUCGCGCGGGUUUGG [12.S]	1 (yes)
UGUAUGGACUGAAGGAGCGGGUAAUAAACUUGAGGAUCACCCAGGUAAUAGGCGAAAGCCACCCAGGUAGGUCGCAGUCCAUACU	1 (yes)
UGAUGGAACGGAAGGAGCGUGUAAGAACAAGAACAUGAGGAUCACCCAUGUAUUAAUUUAACACAGGUAGGUCGCCGAGUUAUUG [11.F]	0 (no)
CGUGGUGGGACGGAUACCAGCCACCGCGGCAACGCAACAUGAGGAUCACCCAUGUUGGGUGGCCCUUGGCAGCUGUGCUGCGACG [#1 Same State - Theophylline B Attempt #28 (HarryS)]	1 (yes)
GAACAUAUGGAUACUAUUAUGAGCACAGAAGGAGCGAGCGGAAGCUCAGGUAGGUCGCUGGGUAACAUGAGGAUCACCCAUGUUG [XArg-A sub1]	0 (no)
UUCGUUUGCGGAAGGAGCGACGGACAUCGGUGAACGACGGACAUGAGGAUCACCCAUGUACGUCAGGUAGGUCGCCGCUAAGAGU [Enbiceri]	0 (no)
CACAUGAGGAUCACCCAUGUCUGAACUGAAGGAGCGCUAAACAAGGCAGGUAGGUCGCGGAAUCCUGUGUGCAUAUGCACACGGG [9.W]	0 (no)
GGCCUAGCGAGCGCUCGCUAGGCCGCGGAUACCAGCGAGGUCCAUCGCCCUUGGCAGCCGAACAUGAGGAUCACCCAUGUCGGUA [#1 Same State - Theophylline A Attempt #15 (HarryS)]	0 (no)
AUGUUGGUCUGAAGGAGCGCGAUAACAUGAGGAUCACCCAUGUUAAAUGGUACAUGAUACUCGCAGGUAGGUCGCAGUACGACAA [Same State Arginine B GF 13]	1 (yes)
GCUGUACCAUGAAGGAGCGUCAUGGAUUGCGAAUACACAUGAGGAUCACCCAUGUUUUUAUGACAGGUAGGUCGCAUGGUACAGC [#01 Same State - Arginine B]	0 (no)
GGCACCAGGCGAAGGAGCGUGAAGACAUGAGGAUCACCCAUGUAGAGGCCCGGACAGGGUUCGCAGGUAGGUCGCGCCUGGUGCC [#1 Same State - Arginine B Attempt #9 (HarryS)]	0 (no)
AAGUGGCACGGAAGGAGCGAGUUUGCCUAUUACAUGAGGAUCACCCAUGUGGGUAAUGGGACUCAGGUAGGUCGCCGUUGUCACU [Same State Arginine B GF 26]	1 (yes)
